# Test system: H37Rv strain of M. tuberculosis
# protocol: Alamar Blue Susceptibility Test (MABA)
# Format: cell-based
# protocol-conditions: Mycobacterium tuberculosis; H37Rv strain of M. tuberculosis; Alamar Blue; read-out: MABA (TB growth inhibition, colourimetric assay)
Counter-ions that a name gives are not always drawn.
readout-type: MIC

Request the reported MIC associated with COc1cc2c(cc1OC)CN(c1nc(NCc3ccccc3)c3ccccc3n1)CC2 [Compound 181]
10 to 50 µM

Request the reported MIC associated with CC(Nc1nc(N2CCN(S(C)(=O)=O)CC2)nc2ccccc12)c1ccccc1 (centres unmarked) [Compound 10]
50 to 128 µM

Request the reported MIC associated with CC(Nc1nc(N2CCOCC2)nc2ccccc12)c1ccccc1 (centres unmarked) [Compound 9]
50 to 128 µM

Request the reported MIC associated with O=C(N1CCCC1)N1CCN(c2nc(NCc3ccc(F)cc3)c3ccccc3n2)CC1 [Compound 205, hydrochloride]
50 to 128 µM

Request the reported MIC associated with O=C1CCN(c2nc(NCc3ccccc3)c3ccccc3n2)CC1 [Compound 139]
< 10 µM

Request the reported MIC associated with CC(C)(Nc1nc(N2CCCCC2)nc2ccccc12)c1ccc(F)cc1 [Compound 120]
< 10 µM

Request the reported MIC associated with Fc1ccc(CNc2nc(NCc3ccc(F)cc3)c3ccc(F)cc3n2)cc1 [Compound 157]
< 10 µM

Request the reported MIC associated with COc1cc2nc(N3CCCCC3)nc(NCc3ccc(F)cc3)c2cc1OC [Compound 150, hydrochloride]
10 to 50 µM

Request the reported MIC associated with CC(C)(Nc1nc(N2CCCCC2)nc2ccccc12)c1ccccc1 [Compound 53]
< 10 µM

Request the reported MIC associated with COC(=O)[C@@H]1CCCN1c1nc(NCc2ccc(F)cc2)c2ccccc2n1 [Compound 200]
50 to 128 µM

Request the reported MIC associated with OC[C@H](Nc1nc(N2CCCCC2)nc2ccccc12)c1ccccc1 [Compound 145, hydrochloride]
50 to 128 µM

Request the reported MIC associated with O=C(C1CC1)N1CCN(c2nc(NCc3ccc(F)cc3)c3ccccc3n2)CC1 [Compound 202, hydrochloride]
50 to 128 µM

Request the reported MIC associated with Cc1ccc(CNc2nc(NCc3ccc(F)cc3)c3ccccc3n2)o1 [Compound 170]
10 to 50 µM

Request the reported MIC associated with Cc1ccccc1CNc1nc(N2CCCCC2)nc2ccccc12 [Compound 104, hydrochloride]
10 to 50 µM

Request the reported MIC associated with c1ccc2c(c1)CN(c1nc(N3CCCCC3)nc3ccccc13)C2 [Compound 85, hydrochloride]
10 to 50 µM

Request the reported MIC associated with Clc1cccc(CNc2nc(N3CCCCC3)nc3ccccc23)c1 [Compound 41]
< 10 µM

Request the reported MIC associated with Fc1ccc(CNc2nc(N3CCC(F)(F)CC3)c3ccccc3n2)cc1 [Compound 149, hydrochloride]
10 to 50 µM

---

Could you please report measured MIC for the items listed next?
# Tested on: H37Rv strain of M. tuberculosis
# protocol: Alamar Blue Susceptibility Test (MABA)
# Assay type: cell-based
# protocol-conditions: Mycobacterium tuberculosis; H37Rv strain of M. tuberculosis; Alamar Blue; read-out: MABA (TB growth inhibition, colourimetric assay)
Where a name gives a salt, the structure may show the parent alone.

What is its MIC for H37Rv strain of M. tuberculosis? Entry: Clc1ccc(CCNc2nc(N3CCCCC3)nc3ccccc23)cc1 [Compound 83, hydrochloride]
< 10 µM

What is its MIC for H37Rv strain of M. tuberculosis? Entry: Clc1ccc(C2(Nc3nc(N4CCCC4)nc4ccccc34)CC2)cc1 [Compound 142, hydrochloride]
10 to 50 µM

What is its MIC for H37Rv strain of M. tuberculosis? Entry: COc1cc2c(cc1OC)CN(c1nc(N3CCCCC3)nc3ccccc13)CC2 [Compound 192]
10 to 50 µM

What is its MIC for H37Rv strain of M. tuberculosis? Entry: FC(F)(F)c1cccc(CNc2nc(N3CCCCC3)nc3ccccc23)c1 [Compound 49]
< 10 µM

What is its MIC for H37Rv strain of M. tuberculosis? Entry: Fc1ccccc1CNc1nc(N2CCCCC2)nc2ccccc12 [Compound 65]
< 10 µM

What is its MIC for H37Rv strain of M. tuberculosis? Entry: CC(C)(Nc1nc(N2CCCC2)nc2ccccc12)c1ccc(F)cc1 [Compound 121]
10 to 50 µM

Hello, the source for this data is patent US20100317607A1, in case you need it.
